For each of the binders below, state its HTRF deltaF.
# TEST TARGET: T1, S1 subunit of the SARS-CoV-2 spike protein (Sino Biological 40591-V08H), His tag (SARS-CoV-2, UniProt P0DTC2 16-685)
# T1 construct: domain: S1 subunit
For clarity, give the value followed by its unit.

So what's the measured HTRF deltaF for this one? IMPI-047 (antibody, V domains shown) VH: EVQLVESGGGLIQPGGSLRLSCAASGFTVSSNYMNWVRQAPGKGLEWVSVIYSGGSTYYADSVKGRFTISRDNSKNTLYLQMNSLRTEDTAVYYCARDLVAYGMDVWGQGTTVTVSS VL: DIQLTQSPSFLSASVGDRVTITCWASQGISSYLAWYQQKPGKAPKVLIYAASTLQSGVPSRFSGSGSGTEFTLTISSLQPEDFATYYCQLLNSNPLTFGGGTKVEIK 2250 deltaF

So what's the measured HTRF deltaF for this one? IMPI-042 (antibody, V domains shown) VH: EVQLVESGGGLIQPGGSLRLSCAASGLTVSSNYMSWVRQAPGKGLEWVSIIYSGGSTYYADSVKGRFTISRDNSKNTLYLQMNSLRAEDTAVYYCARLGGYYYYGMDVWGQGTTVTVSS VL: DIQMTQSPSSLSASVGERVTITCQASQDIRNYLNWYQKKPGKAPKLLIYDSSNLETGVPSRFSGGGSGTDFTFTISSLQPEDIATYYCQQYDNLPITFGQGTRLEIK 617 deltaF
